biological target: Recombinant, full length human FLAG-tagged ATM (Homo sapiens (Human)); assay: ATM ELISA for p53 S15 phosphorylation; assay type: biochemical; conditions: 0.75 nM ATM, 25 nM p53, 10 μM ATP, 30 min at 20° C.; read-out: ATM BIO IC50
Sequence (Q13315 whole entry): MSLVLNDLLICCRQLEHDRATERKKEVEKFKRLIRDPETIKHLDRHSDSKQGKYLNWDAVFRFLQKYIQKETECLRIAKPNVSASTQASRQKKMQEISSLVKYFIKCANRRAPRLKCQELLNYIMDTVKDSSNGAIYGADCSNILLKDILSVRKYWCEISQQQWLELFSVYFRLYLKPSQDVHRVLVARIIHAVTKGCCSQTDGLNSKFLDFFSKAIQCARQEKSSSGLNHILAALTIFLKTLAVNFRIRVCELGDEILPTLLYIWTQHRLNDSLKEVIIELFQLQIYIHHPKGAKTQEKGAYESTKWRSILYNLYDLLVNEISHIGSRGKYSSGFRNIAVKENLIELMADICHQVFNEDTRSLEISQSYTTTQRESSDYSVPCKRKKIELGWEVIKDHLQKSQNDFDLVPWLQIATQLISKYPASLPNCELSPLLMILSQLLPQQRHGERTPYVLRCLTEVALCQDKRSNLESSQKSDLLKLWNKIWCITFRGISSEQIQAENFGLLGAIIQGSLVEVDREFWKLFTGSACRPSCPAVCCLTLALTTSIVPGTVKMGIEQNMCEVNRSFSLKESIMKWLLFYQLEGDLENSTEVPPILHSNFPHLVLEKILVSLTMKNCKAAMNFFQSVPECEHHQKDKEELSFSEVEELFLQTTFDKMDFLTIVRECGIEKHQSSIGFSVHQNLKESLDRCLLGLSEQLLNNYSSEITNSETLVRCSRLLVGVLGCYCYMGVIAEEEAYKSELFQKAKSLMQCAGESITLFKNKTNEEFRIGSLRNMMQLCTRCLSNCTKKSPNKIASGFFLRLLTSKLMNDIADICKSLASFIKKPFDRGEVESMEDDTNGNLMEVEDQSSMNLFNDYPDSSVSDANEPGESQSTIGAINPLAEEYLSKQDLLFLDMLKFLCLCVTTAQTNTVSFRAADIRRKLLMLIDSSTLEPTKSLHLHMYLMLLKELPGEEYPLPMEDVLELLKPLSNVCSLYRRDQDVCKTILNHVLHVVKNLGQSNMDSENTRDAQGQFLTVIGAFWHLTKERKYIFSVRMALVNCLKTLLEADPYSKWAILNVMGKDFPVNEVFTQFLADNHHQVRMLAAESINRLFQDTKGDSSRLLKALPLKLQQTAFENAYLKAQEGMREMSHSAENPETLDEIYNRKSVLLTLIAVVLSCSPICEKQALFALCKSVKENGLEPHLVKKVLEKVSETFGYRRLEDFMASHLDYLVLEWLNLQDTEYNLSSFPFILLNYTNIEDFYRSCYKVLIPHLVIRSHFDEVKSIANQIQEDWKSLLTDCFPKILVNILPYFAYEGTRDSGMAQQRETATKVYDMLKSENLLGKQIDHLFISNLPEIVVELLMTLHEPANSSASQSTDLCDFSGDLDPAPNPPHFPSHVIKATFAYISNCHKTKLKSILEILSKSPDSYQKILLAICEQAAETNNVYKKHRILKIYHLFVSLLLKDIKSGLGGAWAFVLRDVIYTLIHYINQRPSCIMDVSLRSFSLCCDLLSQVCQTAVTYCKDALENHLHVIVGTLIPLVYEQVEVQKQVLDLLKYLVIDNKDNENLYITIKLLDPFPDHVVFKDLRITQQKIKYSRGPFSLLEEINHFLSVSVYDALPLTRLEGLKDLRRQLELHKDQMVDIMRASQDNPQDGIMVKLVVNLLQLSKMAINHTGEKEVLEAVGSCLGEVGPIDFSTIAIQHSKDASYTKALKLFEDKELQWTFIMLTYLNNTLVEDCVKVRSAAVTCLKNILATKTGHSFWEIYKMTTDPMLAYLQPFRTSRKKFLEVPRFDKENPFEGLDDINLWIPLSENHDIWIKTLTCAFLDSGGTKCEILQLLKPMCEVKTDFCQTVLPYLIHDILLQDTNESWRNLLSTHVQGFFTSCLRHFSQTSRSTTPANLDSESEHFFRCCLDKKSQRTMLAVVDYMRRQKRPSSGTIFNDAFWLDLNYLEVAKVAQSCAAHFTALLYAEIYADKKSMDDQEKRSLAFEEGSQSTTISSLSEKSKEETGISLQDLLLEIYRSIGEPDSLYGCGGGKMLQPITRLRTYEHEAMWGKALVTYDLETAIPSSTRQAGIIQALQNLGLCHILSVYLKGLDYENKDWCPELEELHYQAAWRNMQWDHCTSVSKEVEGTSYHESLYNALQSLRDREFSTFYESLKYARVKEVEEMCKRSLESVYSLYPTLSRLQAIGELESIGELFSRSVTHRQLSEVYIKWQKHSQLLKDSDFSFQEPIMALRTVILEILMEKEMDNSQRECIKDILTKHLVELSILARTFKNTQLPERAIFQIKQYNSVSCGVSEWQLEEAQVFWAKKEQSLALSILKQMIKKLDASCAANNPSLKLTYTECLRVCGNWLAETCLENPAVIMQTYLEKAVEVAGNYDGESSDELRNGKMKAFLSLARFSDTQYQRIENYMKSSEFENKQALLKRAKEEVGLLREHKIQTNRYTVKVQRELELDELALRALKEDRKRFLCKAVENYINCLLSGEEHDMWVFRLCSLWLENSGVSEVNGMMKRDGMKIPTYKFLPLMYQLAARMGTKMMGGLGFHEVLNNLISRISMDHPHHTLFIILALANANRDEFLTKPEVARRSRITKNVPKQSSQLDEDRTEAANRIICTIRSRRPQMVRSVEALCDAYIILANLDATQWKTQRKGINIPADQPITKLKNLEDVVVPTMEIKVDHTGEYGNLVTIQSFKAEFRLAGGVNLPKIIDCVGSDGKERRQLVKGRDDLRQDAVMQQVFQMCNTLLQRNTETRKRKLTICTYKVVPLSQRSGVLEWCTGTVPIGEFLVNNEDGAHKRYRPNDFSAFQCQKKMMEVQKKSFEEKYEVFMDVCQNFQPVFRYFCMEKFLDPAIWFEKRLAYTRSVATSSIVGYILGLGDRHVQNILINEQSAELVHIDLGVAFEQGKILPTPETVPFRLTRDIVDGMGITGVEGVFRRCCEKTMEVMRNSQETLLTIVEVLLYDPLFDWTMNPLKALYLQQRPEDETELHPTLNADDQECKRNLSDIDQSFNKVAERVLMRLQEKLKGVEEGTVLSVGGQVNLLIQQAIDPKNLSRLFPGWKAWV
pIC50: −log10 of the molar value.
Kind request: treat 8 as inclusive, so pIC50 at 8 or higher is met, anything lower is not met.

Is reported pIC50 greater than or equal to 8 here: CC1C[C@H](Cc2ccccc2)N(c2nc(N3CCO[C@H](C)C3)cc(=O)[nH]2)C1 (single isomer, unassigned)
not met

Same read-out for `C[C@@H]1CN(c2cc(=O)[nH]c(N3C[C@@H]4C[C@@H]4[C@@H]3Cc3ccccc3)n2)CCO1` ?
met

# repeat for `C[C@@H]1CN(c2cc(=O)[nH]c(N3CCCCC[C@@H]3Cc3ccccc3F)n2)CCO1`
not met

Now the molecule `COc1ccccc1C[C@H]1CC(F)(F)CCCN1c1cc(N2CCOCC2)cc(=O)[nH]1`
not met

Cool, now `CO[C@@H]1CCN(c2cc(N3CCOCC3)cc(=O)[nH]2)[C@H]1Cc1ccccc1`
not met

`O=c1cc(N2CCOCC2)nc(N2C[C@@H]3C[C@@H]3[C@@H]2Cc2ccc(F)cc2)[nH]1` , same question.
met

What about this molecule? CC1COCCN1c1cc(=O)[nH]c(N2CCCC2Cc2ccccc2)n1 (single isomer, unassigned)
not met

Field entry: `O=c1cc(N2CCOCC2)nc(N2CCCCC[C@@H]2Cc2cccc3c2OCC3)[nH]1`
met

Same lookup for `Cc1ccccc1C[C@H]1CCCCCN1c1nc(N2CCOCC2)cc(=O)[nH]1` , please.
met

`COc1ccc(C[C@H]2CCCN2c2cc(N3CCOCC3)cc(=O)[nH]2)cc1` ?
not met

Repeat for the following molecule: `COc1ccccc1C[C@H]1CC2(CC2)CN1c1nc(N2CCOCC2)cc(=O)[nH]1`
met

Next up: `CO[C@@H]1CCN(c2nc(N3CCOCC3)cc(=O)[nH]2)[C@H]1Cc1ccccc1`
met

And then `Cn1c(N2CCC[C@@H]2Cc2ccccc2)nc(N2CCOCC2)cc1=O` , what is it?
met

Entry `COc1cc(F)ccc1C[C@H]1CCCCCN1c1nc(N2CCOCC2)cc(=O)[nH]1` please
not met

----------
Please respond with reported IC50 for every item in the list.
target: Recombinant, full length human FLAG-tagged ATM (Homo sapiens (Human)); assay: ATM ELISA for p53 S15 phosphorylation; conditions: 0.75 nM ATM, 25 nM p53, 10 μM ATP, 30 min at 20° C.; read-out: ATM BIO IC50
Numbers only; they are read as nM.

Suppose we examine the molecule O=c1cc(N2CCOCC2)nc(N2C[C@H]3C[C@H]3[C@@H]2Cc2ccccc2)[nH]1 [Example 213] ; what IC50 value has been reported?
1.1

Request: O=c1cc(N2CCOCC2)cc(N2CCCCC[C@@H]2Cc2cccs2)[nH]1 [Example 31]
12.3

Same read-out for COc1cccc(C[C@H]2CCCCCN2c2nc(N3CCOCC3)cc(=O)[nH]2)c1OC [Example 230] ?
71.2

Similarly, O=c1cc(N2CCOCC2)cc(N2CCC(F)(F)[C@@H]2Cc2ccccc2)[nH]1 [Example 98] ?
38.4
